Below, each entry is listed alongside its reported TGI.
Tested on: MDA-MB-435
Experiment: NCI tumour cell line growth inhibition, 48 h

[
  {
    "compound": "N#CCSc1c(-c2ccccc2)c(=O)n(-c2ccccc2)c(=S)n1-c1ccccc1",
    "TGI": "> 100 µM"
  },
  {
    "compound": "CCOC(=O)C1C[C@H]2CO[C@H](c3ccccc3)N2C1=O (stereo not given in full)",
    "TGI": "> 100 µM"
  },
  {
    "compound": "O=CC(Br)C(Br)c1ccccc1 (stereo not given)",
    "TGI": "3.63 µM"
  },
  {
    "compound": "CCCCCCCCCCCCCCCCCCOc1ccc(/C=C/C2=[N+](CCCl)CCO2)cc1",
    "TGI": "> 100 µM"
  },
  {
    "compound": "CC(C)(C)c1cc(/C=C/C(=O)CC(=O)/C=C/c2cc(C(C)(C)C)c(O)c(C(C)(C)C)c2)cc(C(C)(C)C)c1O",
    "TGI": "> 50 µM"
  }
]

Recorded values, source PubChem BioAssay (NCI).
